- assayed-target: CDK2 (Homo sapiens)
- Construct: purchased Carna Company
- measurement-notes: CDK enzymology experiment in vitro, capillary mobility shift assay (MSA)
- Format: biochemical
- experimental-setup: read-out: CDK2 (nM) inhibitory IC50
metric-name: IC50

# query-smiles, assayed-target, IC50
measured = [
    ("O=S(=O)(c1cn[nH]c1)N1CCC(Nc2ncc(C(F)(F)F)c(O[C@H]3CCOC3)n2)CC1", "CDK2 (Homo sapiens)", "< 0.5 nM"),
]

Ask: May I ask what IC50 has been recorded for `Cn1cc(S(=O)(=O)N2CCC(Nc3ncc(C#N)c(NC4CCCCC4)n3)CC2)cn1` ?
Result: 2.5 to 10 nM

Ask: May I ask what IC50 has been recorded for `Cn1cc(-c2ccc(S(=O)(=O)N3CCC(Nc4ncc(C(F)(F)F)c(O[C@H]5CCOC5)n4)CC3)cc2)cn1` ?
Result: < 0.5 nM

Ask: May I ask what IC50 has been recorded for `O=S(=O)(c1ccc(C2CNC2)cc1)N1CCC(Nc2ncc(C(F)(F)F)c(O[C@H]3CCOC3)n2)CC1` ?
Result: < 0.5 nM

Ask: May I ask what IC50 has been recorded for `C[C@H]1CN(c2ccc(S(=O)(=O)N3CCC(Nc4ncc(C(F)(F)F)c(O[C@H]5CCOC5)n4)CC3)cn2)C[C@H](C)N1` ?
Result: < 0.5 nM

Ask: May I ask what IC50 has been recorded for `O=S(=O)(c1ccc(C2CNC2)c(F)c1)N1CCC(Nc2ncc(C(F)(F)F)c(O[C@H]3CCOC3)n2)CC1` ?
Result: 0.5 to 2.5 nM

Ask: May I ask what IC50 has been recorded for `N#Cc1cnc(NC2CCN(S(=O)(=O)c3ccc(C4=CCNCC4)cc3)CC2)nc1NC1CCCC1` ?
Result: 0.5 to 2.5 nM

----------
- assayed-target: CDK2 (Homo sapiens)
- Construct: purchased Carna Company
- measurement-notes: CDK enzymology experiment in vitro, capillary mobility shift assay (MSA)
- Format: biochemical
- experimental-setup: read-out: CDK2 (nM) inhibitory IC50
- Source text: CDK1/CDK2/CDK4/CDK6/CDK7/CDK9 were purchased from Carna Company; Carliper substrate CTD3/substrate 18/substrate 8 were purchased from Gil Biochemical Company; Dinaciclib/Palbociclib were purchased from Selleckchem Company; DMSO was purchased from Sigma Company; 384-well plates were purchased from Corning Company. […]
metric-name: IC50

The examples below pair each entry with its known result.
# compound, IC50
rows = [
    ("Cc1cc(S(=O)(=O)N2CCC(Nc3ncc(C(F)(F)F)c(O[C@H]4CCOC4)n3)CC2)ccc1C1=CCCNC1", "< 0.5 nM"),
    ("CS(=O)(=O)N1CCC(Nc2cc(NC3CCCC3)c(C#N)cn2)CC1", "10 to 50 nM"),
    ("O=S(=O)(c1ccc(N2CC3(CNC3)C2)cc1)N1CCC(Nc2ncc(C(F)(F)F)c(O[C@H]3CCOC3)n2)CC1", "< 0.5 nM"),
    ("Cn1cc(-c2ccc(S(=O)(=O)N3CCC(Nc4ncc(C#N)c(NC5CCCC5)n4)CC3)cc2)cn1", "0.5 to 2.5 nM"),
    ("Cn1cc(S(=O)(=O)N2CCC(Nc3ncc(C#N)c(O[C@H]4CC[C@H](O)C4)n3)CC2)cn1 (relative stereo) [Compound 55]", "2.5 to 10 nM"),
]

Ask: May I ask what IC50 has been recorded for `Cn1cc(S(=O)(=O)N2CCC(Nc3ncc(C#N)c(S(=O)(=O)C4CCCC4)n3)CC2)cn1` ?
Result: 0.5 to 2.5 nM

Ask: May I ask what IC50 has been recorded for O=S(=O)(c1ccc([C@@H]2CCNC2)cc1)N1CCC(Nc2ncc(C(F)(F)F)c(O[C@H]3CCOC3)n2)CC1 (single isomer, unassigned) ?
Result: 0.5 to 2.5 nM
